Where these numbers come from: the RNAGym collection of RNA variant scans (doi:10.1073/pnas.2313332121)

Listing of recorded polymerase ribozyme fitness (log ratio) by entry.
B1: TPR 5TU (parent)
chain: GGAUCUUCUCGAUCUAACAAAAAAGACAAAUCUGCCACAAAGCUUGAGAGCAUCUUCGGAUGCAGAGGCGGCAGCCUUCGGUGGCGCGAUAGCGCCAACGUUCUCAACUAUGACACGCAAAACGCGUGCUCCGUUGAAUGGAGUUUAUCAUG

- Variants of: B1
- Method Notes: polymerase ribozyme fitness, log enrichment relative to wild type (log ratio); higher = more active; in vitro selection for triplet polymerase activity
Fewer inactive variants are shown than the library holds.
Reply with just the number.

response.value for A40U A60C (field: polymerase ribozyme fitness (log ratio)) = -1.31

response.value for G67A C96A (field: polymerase ribozyme fitness (log ratio)) = -3.46

response.value for A52U C54G (field: polymerase ribozyme fitness (log ratio)) = -2.21

New cases:
response.value for A26C C93G C114U (field: polymerase ribozyme fitness (log ratio)) = -4.19
